# tested system: Ba/F3_KRAS^G12D cells (Homo sapiens, UniProt P01116, G12D, cells depend on it)
# Sequence (P01116 whole entry G12D): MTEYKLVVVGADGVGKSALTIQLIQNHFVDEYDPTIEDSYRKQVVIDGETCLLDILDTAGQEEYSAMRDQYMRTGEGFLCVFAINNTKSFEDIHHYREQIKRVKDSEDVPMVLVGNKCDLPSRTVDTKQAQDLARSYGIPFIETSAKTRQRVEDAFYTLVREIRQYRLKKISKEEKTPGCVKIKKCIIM
# assay details: Ba/F3 KRAS G12D cell proliferation assay (CellTiter-Glo)
# Type: cell-based
# run parameters: treated for 3 days, cell-titer Glo, cell growth inhibition, read-out: BaF3_KRAS^G12D IC50
reported property: GI50

As a guide, the following entries are already answered.
compound	reported property	readout value
CN1CCC(c2nc(N3CC4CCC(C3)N4)c3cc(Cl)c(-c4cc(O)cc5ccccc45)c(F)c3n2)CC1	GI50	0.5 to 5 µM
CN(C)CC1CN(c2nc(N3CC4CCC(C3)N4)c3cc(Cl)c(-c4cc(O)cc5ccccc45)c(F)c3n2)C1	GI50	0.5 to 5 µM

Prompt: Any idea what its GI50 is? The compound is Oc1cc(-c2c(Cl)cc3c(N4CCNCC4)nc(OCC45CCCN4CCC5)nc3c2F)c2ccccc2c1
Response: 0.5 to 5 µM

Prompt: // query GI50 value for entry C#Cc1c(F)ccc2cc(O)cc(-c3cc(OC)c4c(N5CC6CCC(C5)N6)nc(OC[C@@]56CCCN5C[C@H](F)C6)nc4c3F)c12
Response: < 0.5 µM
